Assayed Target: NAD-dependent protein deacetylase sirtuin-1 (Homo sapiens) (UniProt Q96EB6)
Sequence (Q96EB6 whole entry): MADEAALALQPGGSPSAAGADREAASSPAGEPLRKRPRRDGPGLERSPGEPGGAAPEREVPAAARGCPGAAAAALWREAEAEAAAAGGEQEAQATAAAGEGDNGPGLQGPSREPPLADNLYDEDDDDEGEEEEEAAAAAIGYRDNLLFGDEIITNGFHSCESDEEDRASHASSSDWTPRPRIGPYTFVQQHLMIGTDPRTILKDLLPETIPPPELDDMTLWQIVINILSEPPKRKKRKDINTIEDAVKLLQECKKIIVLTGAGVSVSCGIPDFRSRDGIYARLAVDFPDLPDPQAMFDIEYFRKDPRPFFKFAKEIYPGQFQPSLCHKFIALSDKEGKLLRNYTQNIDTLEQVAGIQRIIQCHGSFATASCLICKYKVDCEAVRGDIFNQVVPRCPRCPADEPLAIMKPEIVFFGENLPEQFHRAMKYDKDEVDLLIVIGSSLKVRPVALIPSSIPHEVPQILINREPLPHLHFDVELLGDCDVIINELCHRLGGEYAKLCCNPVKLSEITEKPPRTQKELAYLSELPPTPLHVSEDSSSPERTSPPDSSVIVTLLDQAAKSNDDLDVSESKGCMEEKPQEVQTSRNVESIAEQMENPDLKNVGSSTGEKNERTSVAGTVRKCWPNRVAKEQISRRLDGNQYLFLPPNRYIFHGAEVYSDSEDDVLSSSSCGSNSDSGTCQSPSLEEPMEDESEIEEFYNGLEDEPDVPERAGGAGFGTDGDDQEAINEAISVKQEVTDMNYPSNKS
Experimental Protocol: Inhibition of SirT1 in human ARN8 cells assessed as p53 activation at 10 uM by beta-galactosidase reporter gene assay
Assay type: cell-based
Active and inactive are the calls of the source. The calls are words filed in the database; no cut-off is given here.
Outcome codes: active, inactive

[[record]]
smiles_record = "CCCCCc1ccc(C(=O)NC(=S)Nc2ccc(NC(=O)CCCCN(C)C)cc2)cc1"
assayed_target = "NAD-dependent protein deacetylase sirtuin-1 (Homo sapiens) (UniProt Q96EB6)"
category_label = "inactive"

[[record]]
smiles_record = "CN(C)CCCCNC(=O)c1ccc(NC(=S)NC(=O)c2ccc(C(C)(C)C)cc2)cc1"
assayed_target = "NAD-dependent protein deacetylase sirtuin-1 (Homo sapiens) (UniProt Q96EB6)"
category_label = "active"

[[record]]
smiles_record = "Cc1cccc(C(=O)NC(=S)Nc2ccc(NC(=O)CCCCN(C)C)cc2)c1"
assayed_target = "NAD-dependent protein deacetylase sirtuin-1 (Homo sapiens) (UniProt Q96EB6)"
category_label = "inactive"

